# assayed_system: T1, mouse TMEM106B (mouse, UniProt Q80X71 2-275)
# T1 construct: transiently expressed on HEK293 cells, or native on mouse Neuro2a cells; also called moTMEM106B; murine TMEM106B
# measurement_notes: FACS Neuro2a;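 further: flow cytometry of antibody binding to cells: hybridoma supernatant or purified antibody at 10 µg/ml, 1 h on ice, secondary detection, propidium iodide–positive dead cells gated out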
Provide the recorded MFI for the entries that follow.
Answers are plain numbers, in MFI.

Examples with their reported MFI follow.
• TM-15 (antibody, V domains shown, mouse IgG (hybridoma)) VH: QVQLQQPGAEFVRPGASVKLSCKASGYTFTNYWITWVKQRPGHGLEWIGDIYPGSGNSNYNESFKRKATLTVDTSSSTAYMHLSSQTSEDSAVYFCARKAYGGFPYWGQGTLVTVSA VL: DIQMTQSPASLSVSVGETVTITCRVSENIYNNLAWYQQKQEKSPQLLVFAATNLADGVPSRFSGSGSGTQFSLKINSLQSEDFGTYYCQHFWDTPFTFGSGTKLEIK = 470
• TM-3 (antibody, V domains shown) VH: QVTLKESGPGIVQPSQTLSLTCSFSGFSLNTLGRGVGWIRQPSGKGLEWLAKIWWNDDKFYYPALKSRLTISKDTSKNQIFLKIANVDTADSATYYCARIAGGTGAAYWGQGTTLTVSS VL: DIVMTQAAFSNPVTLGTSASISCRSSKSLLHSNGITYLYWYLQKPGQSPQLLISQMSSLASGVPDRFSSGGSGTDFTLRISRVEAEDVGVFYCAQNLELPWTFGGGTKLELK = 1980
• TM-52 (antibody, V domains shown, mouse IgG (hybridoma)) VH: QVQLQQPGAELVKPGASVKLSCKASGYTFTNYWMHWVKQRPGQGLDWIGNIDPSDSETHYNQKFKDKATLTVDKVSSTAYMQLSSLTSEDSAVYYCARRGYYGRSPFAYWGQGTLVTVSA VL: ENVLTQSPAIMSASPGEKVTMTCSASSSVSYMHWYQQKSNTSPKLWIYDTSKLASGVPGRFSGSGSGNSYSLTISSAEAEDVATYYCFQGSGYPLTFGAGTKLELK = 210

// query Entry under review: TM-26 (antibody, V domains shown) VH: QVQLQQSGAELIRPGTSVKVSCKASGYAFTNYLIEWVKKRPGQGLEWIGVINPGSGITNYNEKFKGKATLTADKSSSTAYMQLSSLTSEDSAVYFCARSDFITTVVADYWGQGTTVTVSS VL: DIVVTQTPLSLPVSFGDQVSISCRSSQSLTNYYGNTYLSWYLHKPGQSPQLLIYGISNRFSGVPDRFSGSGSGTDFTLKISTIKPEDLGMYYCLQGTHQPRTFGGGTKLEIK . Reported MFI?
// result 324
